Tested on: Streptococcus pyogenes
Experiment: Antifungal activity against Streptococcus pyogenes assessed as growth inhibition by standard broth dilution method
Assay type: functional
Calls of active or inactive are those of the source. No cut-off for these calls is given here.
ASSAY_READOUT: MIC

Solved entries:
// returns reported MIC for input "CC[C@H]1O[C@@H](/C(C)=C/[C@H](C)/C=C/[C@H]2[C@@H](C)[C@@H]2/C=C/[C@@H]2O[C@H](CC(=O)N(C(=O)NC3CCCCC3)C3CCCCC3)C[C@H](O)[C@H]2O)CC=C1C"
inactive

// returns reported MIC for input "CC[C@H]1O[C@@H](/C(C)=C/[C@H](C)/C=C/[C@H]2[C@@H](C)[C@@H]2/C=C/[C@@H]2O[C@H](CC(=O)N3CCCC3)C[C@H](O)[C@H]2O)CC=C1C"
3.12 µg/mL

// returns reported MIC for input "CCCC(=O)O[C@H]1[C@H](/C=C/[C@H]2[C@H](C)[C@@H]2/C=C/[C@@H](C)/C=C(\C)[C@H]2CC=C(C)[C@@H](CC)O2)O[C@H](CC(=O)O)C[C@@H]1OC(=O)CCC"
6.25 µg/mL

// returns reported MIC for input "CCC(=O)O[C@H]1[C@H](/C=C/[C@H]2[C@H](C)[C@@H]2/C=C/[C@@H](C)/C=C(\C)[C@H]2CC=C(C)[C@@H](CC)O2)O[C@H](CC(=O)O)C[C@@H]1OC(=O)CC"
6.25 µg/mL

// returns reported MIC for input "CC[C@H]1O[C@@H](/C(C)=C/[C@H](C)/C=C/[C@H]2[C@@H](C)[C@@H]2/C=C/[C@@H]2O[C@H](CC(=O)OC)C[C@H](OC(=O)Nc3ccc(Cl)cc3)[C@H]2OC(=O)Nc2ccc(Cl)cc2)CC=C1C"
inactive

Here's the next entry for you.
// returns reported MIC for input CC[C@H]1O[C@@H](/C(C)=C/[C@H](C)/C=C/[C@H]2[C@@H](C)[C@@H]2/C=C/[C@@H]2O[C@H](CC(=O)OC)C[C@@H]3OC(=O)O[C@@H]23)CC=C1C (relative stereo)
inactive

###

Tested on: Histoplasma capsulatum
Assay: Antifungal activity against Histoplasma capsulatum assessed as growth inhibition by standard broth dilution method
Format: functional
We begin with a simple list: items and their reported MIC.
Answer format: numeric, µg/mL implied, no suffix.

Solved entries:
// returns reported MIC for input "CC[C@H]1O[C@@H](/C(C)=C/[C@H](C)/C=C/[C@H]2[C@@H](C)[C@@H]2/C=C/[C@@H]2O[C@H](CC(=O)NCc3ccccc3)C[C@H](O)[C@H]2O)CC=C1C"
6.25

// returns reported MIC for input "CCC(=O)O[C@H]1[C@H](/C=C/[C@H]2[C@H](C)[C@@H]2/C=C/[C@@H](C)/C=C(\C)[C@H]2CC=C(C)[C@@H](CC)O2)O[C@H](CC(=O)O)C[C@@H]1OC(=O)CC"
6.25

More entries:
// returns reported MIC for input CC[C@H]1O[C@@H](/C(C)=C/[C@H](C)/C=C/[C@H]2[C@@H](C)[C@@H]2/C=C/[C@@H]2O[C@H](CC(=O)OC)C[C@H](O)[C@H]2O)CC=C1C (relative stereo)
0.39

###

System: Histoplasma capsulatum
Experiment: Antifungal activity against Histoplasma capsulatum assessed as growth inhibition by standard broth dilution method
Format: functional
ASSAY_READOUT: MIC (µg/mL)
Answer format: numeric, µg/mL implied, no suffix.

// returns reported MIC for input "CC[C@H]1O[C@@H](/C(C)=C/[C@H](C)/C=C/[C@H]2[C@@H](C)[C@@H]2/C=C/[C@@H]2O[C@H](CC(=O)NC3CCCCC3)C[C@H](O)[C@H]2O)CC=C1C"
3.12

// returns reported MIC for input "CC[C@H]1O[C@@H](/C(C)=C/[C@H](C)/C=C/[C@H]2[C@@H](C)[C@@H]2/C=C/[C@@H]2O[C@H](CC(=O)N3CCCCC3)C[C@H](O)[C@H]2O)CC=C1C"
3.12

// returns reported MIC for input CC[C@H]1O[C@@H](/C(C)=C/[C@H](C)/C=C/[C@H]2[C@@H](C)[C@@H]2/C=C/[C@@H]2O[C@H](CC(=O)OC)C[C@H](OC(C)=O)[C@H]2OC(C)=O)CC=C1C (relative stereo)
12.5

// returns reported MIC for input "CCCCNC(=O)C[C@@H]1C[C@H](O)[C@@H](O)[C@H](/C=C/[C@H]2[C@H](C)[C@@H]2/C=C/[C@@H](C)/C=C(\C)[C@H]2CC=C(C)[C@@H](CC)O2)O1"
1.56

// returns reported MIC for input "CC[C@H]1O[C@@H](/C(C)=C/[C@H](C)/C=C/[C@H]2[C@@H](C)[C@@H]2/C=C/[C@@H]2O[C@H](CC(=O)OC)C[C@H](OC(=O)Nc3ccccc3)[C@H]2OC(=O)Nc2ccccc2)CC=C1C"
25

Here's the next entry for you.
// returns reported MIC for input CC[C@H]1O[C@@H](/C(C)=C/[C@H](C)/C=C/[C@H]2[C@@H](C)[C@@H]2/C=C/[C@@H]2O[C@H](CC(=O)O)C[C@H](OC(C)=O)[C@H]2OC(C)=O)CC=C1C (relative stereo)
3.12

###

Tested on: Streptococcus pyogenes
Assay: Antifungal activity against Streptococcus pyogenes assessed as growth inhibition by standard broth dilution method
Format: functional
The source made the active and inactive calls. No cut-off for these calls is given here.
ASSAY_READOUT: MIC

Solved entries:
// returns reported MIC for input "CC[C@H]1O[C@@H](/C(C)=C/[C@H](C)/C=C/[C@H]2[C@@H](C)[C@@H]2/C=C/[C@@H]2O[C@H](CC(=O)N3CCCCC3)C[C@H](O)[C@H]2O)CC=C1C"
1.56 mg/L

// returns reported MIC for input CC[C@H]1O[C@@H](/C(C)=C/[C@H](C)/C=C/[C@H]2[C@@H](C)[C@@H]2/C=C/[C@@H]2O[C@H](CC(=O)O)C[C@H](O)[C@H]2O)CC=C1C (relative stereo) [AMBRUTICIN]
25 mg/L

// returns reported MIC for input CC[C@H]1O[C@@H](/C(C)=C/[C@H](C)/C=C/[C@H]2[C@@H](C)[C@@H]2/C=C/[C@@H]2O[C@H](CC(=O)O)C[C@H](OC(C)=O)[C@H]2OC(C)=O)CC=C1C (relative stereo)
6.25 mg/L

// returns reported MIC for input "CC[C@H]1O[C@@H](/C(C)=C/[C@H](C)/C=C/[C@H]2[C@@H](C)[C@@H]2/C=C/[C@@H]2O[C@H](CC(=O)NCc3ccccc3)C[C@H](O)[C@H]2O)CC=C1C"
3.12 mg/L

// returns reported MIC for input "CC[C@H]1O[C@@H](/C(C)=C/[C@H](C)/C=C/[C@H]2[C@@H](C)[C@@H]2/C=C/[C@@H]2O[C@H](CC(=O)O)C[C@H](OC=O)[C@H]2OC=O)CC=C1C"
25 mg/L

// returns reported MIC for input "CC[C@H]1O[C@@H](/C(C)=C/[C@H](C)/C=C/[C@H]2[C@@H](C)[C@@H]2/C=C/[C@@H]2O[C@H](CC(=O)NC3CCCCC3)C[C@H](OC(C)=O)[C@H]2OC(C)=O)CC=C1C"
inactive

// returns reported MIC for input CC[C@H]1O[C@@H](/C(C)=C/[C@H](C)/C=C/[C@H]2[C@@H](C)[C@@H]2/C=C/[C@@H]2O[C@H](CC(=O)OC)C[C@H](O)[C@H]2O)CC=C1C (relative stereo)
inactive

// returns reported MIC for input "CC[C@H]1O[C@@H](/C(C)=C/[C@H](C)/C=C/[C@H]2[C@@H](C)[C@@H]2/C=C/[C@@H]2O[C@H](CC(=O)N3CCCC3)C[C@H](OC(C)=O)[C@H]2OC(C)=O)CC=C1C"
inactive

// returns reported MIC for input CC[C@H]1O[C@@H](/C(C)=C/[C@H](C)/C=C/[C@H]2[C@@H](C)[C@@H]2/C=C/[C@@H]2O[C@H](CC(=O)OC)C[C@H](OC(C)=O)[C@H]2OC(C)=O)CC=C1C (relative stereo)
inactive

// returns reported MIC for input "CC[C@H]1O[C@@H](/C(C)=C/[C@H](C)/C=C/[C@H]2[C@@H](C)[C@@H]2/C=C/[C@@H]2O[C@H](CC(=O)N(C(=O)NC3CCCCC3)C3CCCCC3)C[C@H](OC(C)=O)[C@H]2OC(C)=O)CC=C1C"
inactive

More entries:
// returns reported MIC for input "CC[C@H]1O[C@@H](/C(C)=C/[C@H](C)/C=C/[C@H]2[C@@H](C)[C@@H]2/C=C/[C@@H]2O[C@H](CC(=O)OC)C[C@H](OC=O)[C@H]2OC=O)CC=C1C"
inactive

// returns reported MIC for input "CC[C@H]1O[C@@H](/C(C)=C/[C@H](C)/C=C/[C@H]2[C@@H](C)[C@@H]2/C=C/[C@@H]2O[C@H](CC(=O)OC)C[C@H](OC(=O)Nc3ccccc3)[C@H]2OC(=O)Nc2ccccc2)CC=C1C"
inactive

// returns reported MIC for input "CCCCNC(=O)C[C@@H]1C[C@H](O)[C@@H](O)[C@H](/C=C/[C@H]2[C@H](C)[C@@H]2/C=C/[C@@H](C)/C=C(\C)[C@H]2CC=C(C)[C@@H](CC)O2)O1"
1.56 mg/L
